Reference source for all entries: paper PMC6270063

Measured Minimal inhibitory concentration (MIC), S. aureus ATCC 43300 by item
- Test system: S. aureus ATCC 43300
- Condition parameters: methicillin-resistant strain; broth microdilution CLSI M07-A8; CAMHB with 0.5 mM Ca2+ and Mg2+; 35 °C, 18 or 24 h
Assay readout: Minimal inhibitory concentration (MIC), S. aureus ATCC 43300 (µM)

| Compound | Value operator | Reported measurement |
| --- | --- | --- |
| NCCCC[C@H](NC(=O)OCc1ccccc1Cl)C(=O)NCCNC(=O)CCN(CCC[C@@H](C(=O)NCCc1c[nH]c2ccccc12)N(CCC(=O)NCCNC(=O)[C@H](CCCCN)NC(=O)OCc1ccccc1Cl)CCC(=O)NCCNC(=O)[C@H](CCCCN)NC(=O)OCc1ccccc1Cl)CCC(=O)NCCNC(=O)[C@H](CCCCN)NC(=O)OCc1ccccc1Cl [Dendrimer 3b] | = | 12.1 |
| N[C@@H](CCCCNC(=O)OCc1ccccc1Cl)C(=O)NCCNC(=O)CCN(CCC[C@@H](C(=O)NCCc1c[nH]c2ccccc12)N(CCC(=O)NCCNC(=O)[C@@H](N)CCCCNC(=O)OCc1ccccc1Cl)CCC(=O)NCCNC(=O)[C@@H](N)CCCCNC(=O)OCc1ccccc1Cl)CCC(=O)NCCNC(=O)[C@@H](N)CCCCNC(=O)OCc1ccccc1Cl [Dendrimer 3f] | = | 20.4 |
| NCCCC[C@H](NC(=O)OCc1ccccc1Cl)C(=O)NCCNC(=O)CCN(CCC[C@@H](C(=O)Nc1cccnc1)N(CCC(=O)NCCNC(=O)[C@H](CCCCN)NC(=O)OCc1ccccc1Cl)CCC(=O)NCCNC(=O)[C@H](CCCCN)NC(=O)OCc1ccccc1Cl)CCC(=O)NCCNC(=O)[C@H](CCCCN)NC(=O)OCc1ccccc1Cl [Dendrimer 3a] | > | 252 |
| N[C@@H](CCCCNC(=O)OCc1ccccc1Cl)C(=O)NCCNC(=O)CCN(CCC[C@@H](C(=O)Nc1cccnc1)N(CCC(=O)NCCNC(=O)[C@@H](N)CCCCNC(=O)OCc1ccccc1Cl)CCC(=O)NCCNC(=O)[C@@H](N)CCCCNC(=O)OCc1ccccc1Cl)CCC(=O)NCCNC(=O)[C@@H](N)CCCCNC(=O)OCc1ccccc1Cl [Dendrimer 3e] | = | 142 |
